experiment: Half-lives and pharmacokinetic parameters of polypeptides vs HM-1; details: in vivo; read-out: T1/2β (half-life) (converted)
Peptide text beside a SMILES is read from it. * marks the point of attachment. Hexanoyl(6-maleimido) = O=C1C=CC(=O)N1CCCCCC(=O)*; X45 = O=C1C=CC(=O)N1CCCCC(=O)*
parameterMeasured: half-life (h)
// note: answer is a bare numeric in h

Identify half-life associated with the compound C[C@H](NC(=O)CNC(=O)[C@H](CCCNC(=N)N)NC(=O)CCCCN1C(=O)C=CC1=O)C(=O)N[C@@H](CC(=O)O)C(=O)N[C@@H](CCCNC(=N)N)C(=O)N[C@@H](C)C(=O)NCC(=O)NCC(=O)NCC(=O)NCC(=O)N[C@@H](CCCNC(=N)N)C(=O)NCC(=O)N[C@@H](CC(=O)O)C(=O)O [X4] (X45-RGADRAGGGGRGD-OH)
37.4

Identify half-life associated with the compound CC(C)[C@H](NC(=O)[C@H](C)NC(=O)CNC(=O)[C@H](CCCNC(=N)N)NC(=O)CCCCCN1C(=O)C=CC1=O)C(=O)N[C@@H](CC(=O)O)C(=O)N[C@@H](CCCNC(=N)N)C(=O)N[C@@H](C)C(=O)NCC(=O)NCC(=O)NCC(=O)NCC(=O)N[C@@H](CCCNC(=N)N)C(=O)NCC(=O)N[C@@H](CC(=O)O)C(=O)O [P10] ({Hexanoyl(6-maleimido)}-RGAVDRAGGGGRGD-OH; C-terminus assumed)
30.6

The measured values listed here are drawn from patent US20200270309A1.
